- MEASUREMENT_TARGET: glucokinase (GK) enzyme (Homo sapiens)
- EXPERIMENT_NOTES: In-vitro glucokinase (GK) activation assay (coupled with glucose-6-phosphate dehydrogenase, absorbance at 340)
- Format: biochemical
- CONDITION_SET: 10 uM compound; glucose 2.5 mM; read-out: % of GK activity wrt DMSO
READOUT: activity at 10 µM (%)

Answered cases to consult:
Cc1nnc(-c2ccc(Oc3cc(OC4CCN(C)C4=O)cc(C(=O)Nc4cc(C)n(C(=O)OC(C)(C)C)n4)c3)cc2)o1 (stereo not drawn) ... 150
Cc1nnc(-c2ccc(Oc3cc(OC4CCN(C5CC5)C4=O)cc(C(=O)Nc4nccs4)c3)cc2)o1 (stereo not drawn) ... 281
Cc1csc(NC(=O)c2cc(Oc3ccc(-c4nnc(C)o4)cc3)cc(OC3CCN(C4CC4)C3=O)c2)n1 (stereo not drawn) ... 282
Cc1csc(NC(=O)c2cc(Oc3ccc(-c4nnc(CC(C)C)o4)cc3)cc(OC3CCN(C)C3=O)c2)n1 (stereo not drawn) ... 386

[P] Cc1nnc(-c2ccc(Oc3cc(OC4CCN(C)C4=O)cc(C(=O)NC4=NCCS4)c3)cc2)o1 (stereo not drawn)
[Q] Cc1nnc(-c2ccc(Oc3cc(OC4CCN(C(C)C)C4=O)cc(C(=O)Nc4ncc(C)s4)c3)cc2)o1 (stereo not drawn)
Between P and Q , whose measured activity at 10 µM reads higher? Selection: enter the item's label.
P
(P: 275%, Q: 178%)

[I] Cc1nnc(-c2ccc(Oc3cc(OC4CCN(C)C4=O)cc(C(=O)Nc4nc(CCN5CCOCC5=O)cs4)c3)cc2)o1 (stereo not drawn)
[II] Cc1nnc(-c2ccc(Oc3cc(OC4CCN(C5CC5)C4=O)cc(C(=O)Nc4ncc(C)s4)c3)cc2)o1 (stereo not drawn)
Between I and II , whose measured activity at 10 µM reads higher? Selection: enter the item's label.
I
(I: 329%, II: 196%)

[a] Cc1nnc(-c2ccc(Oc3cc(OC4CCN(C)C4=O)cc(C(=O)Nc4nc(CC(=O)O)cs4)c3)cc2)o1 (stereo not drawn)
[b] CCOC(=O)c1cnc(NC(=O)c2cc(Oc3ccc(-c4nnc(C)o4)cc3)cc(OC3CCN(C)C3=O)c2)s1 (stereo not drawn)
Between a and b , whose measured activity at 10 µM reads higher? Selection: enter the item's label.
a
(a: 322%, b: 208%)

* * *

- MEASUREMENT_TARGET: glucokinase (GK) enzyme (Homo sapiens)
- Sequence (P35557 1-465): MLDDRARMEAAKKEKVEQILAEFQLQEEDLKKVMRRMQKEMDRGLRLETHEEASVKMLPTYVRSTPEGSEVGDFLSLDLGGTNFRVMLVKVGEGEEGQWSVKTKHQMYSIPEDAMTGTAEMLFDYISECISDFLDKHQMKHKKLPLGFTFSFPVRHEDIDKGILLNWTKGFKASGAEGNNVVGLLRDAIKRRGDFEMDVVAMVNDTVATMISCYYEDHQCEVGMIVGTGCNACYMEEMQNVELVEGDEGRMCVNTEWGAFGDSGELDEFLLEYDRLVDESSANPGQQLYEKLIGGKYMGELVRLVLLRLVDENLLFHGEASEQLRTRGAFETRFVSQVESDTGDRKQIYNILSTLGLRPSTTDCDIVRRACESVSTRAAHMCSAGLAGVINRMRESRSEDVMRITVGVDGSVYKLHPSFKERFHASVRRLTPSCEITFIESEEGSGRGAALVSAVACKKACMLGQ
- EXPERIMENT_NOTES: In-vitro glucokinase (GK) activation assay (coupled with glucose-6-phosphate dehydrogenase, absorbance at 340)
- Type: biochemical
- CONDITION_SET: 5 uM compound; glucose 2.5 mM; read-out: % of GK activity wrt DMSO
READOUT: activity at 5 µM (%)

Cc1nnc(-c2ccc(Oc3cc(OC4CCN(C)C4=O)cc(C(=O)Nc4ncc(Br)s4)c3)cc2)o1 (stereo not drawn) ... 252
CCOC(=O)c1cnc(NC(=O)c2cc(Oc3ccc(-c4nnc(C)o4)cc3)cc(OC3CCN(C)C3=O)c2)s1 (stereo not drawn) ... 203
Cc1nnc(-c2ccc(Oc3cc(OC4CCN(C)C4=O)cc(C(=O)Nc4nc5ccccc5s4)c3)cc2)o1 (stereo not drawn) ... 288
Cc1csc(NC(=O)c2cc(Oc3ccc(-c4nnc(CC(C)C)o4)cc3)cc(OC3CCN(C)C3=O)c2)n1 (stereo not drawn) ... 370
Cc1nnc(-c2ccc(Oc3cc(OC4CCN(C5CC5)C4=O)cc(C(=O)Nc4nccs4)c3)cc2)o1 (stereo not drawn) ... 278
Cc1nnc(-c2cccc(Oc3cc(OC4CCN(C)C4=O)cc(C(=O)Nc4nccs4)c3)c2)o1 (stereo not drawn) ... 232
Cc1nnc(-c2ccc(Oc3cc(O[C@@H]4CCN(C)C4=O)cc(C(=O)Nc4nccs4)c3)cc2)o1 ... 230
Cc1csc(NC(=O)c2cc(Oc3ccc(-c4nnc(C5CC5)o4)cc3)cc(OC3CCN(C)C3=O)c2)n1 (stereo not drawn) ... 383
Cc1nnc(-c2ccc(Oc3cc(OC4CCN(C)C4=O)cc(C(=O)Nc4nc(-c5ccccc5)cs4)c3)cc2)o1 (stereo not drawn) ... 290
Cc1nnc(-c2ccc(Oc3cc(OC4CCN(C)C4=O)cc(C(=O)Nc4ncc(C)s4)c3)cc2)o1 (stereo not drawn) ... 233
Cc1nnc(-c2ccc(Oc3cc(OC4CCN(C5CCCCC5)C4=O)cc(C(=O)Nc4nccs4)c3)cc2)o1 (stereo not drawn) ... 254
CCc1nnc(-c2ccc(Oc3cc(OC4CCN(C)C4=O)cc(C(=O)Nc4nc(C)cs4)c3)cc2)o1 (stereo not drawn) ... 355
Cc1nnc(-c2ccc(Oc3cc(OC4CCN(C)C4=O)cc(C(=O)Nc4cnccn4)c3)cc2)o1 (stereo not drawn) ... 345
Cc1nnc(-c2ccc(Oc3cc(OC4CCN(C)C4=O)cc(C(=O)Nc4nc(CCN5CCOCC5=O)cs4)c3)cc2)o1 (stereo not drawn) ... 287
Cc1nnc(-c2ccc(Oc3cc(OC4CCN(C)C4=O)cc(C(=O)Nc4ncc(C(=O)O)s4)c3)cc2)o1 (stereo not drawn) ... 206
Cc1csc(NC(=O)c2cc(Oc3ccc(-c4nnc(-c5ccccc5)o4)cc3)cc(OC3CCN(C)C3=O)c2)n1 (stereo not drawn) ... 356
Cc1nnc(-c2ccc(Oc3cc(OC4CCN(C5CC5)C4=O)cc(C(=O)Nc4ncc(C)s4)c3)cc2)o1 (stereo not drawn) ... 208
Cc1csc(NC(=O)c2cc(Oc3ccc(-c4nnc(C)o4)cc3)cc(OC3CCN(C(C)C)C3=O)c2)n1 (stereo not drawn) ... 259
CN1CCC(Oc2cc(Oc3ccc(-c4nnc(-c5ccccc5)o4)cc3)cc(C(=O)Nc3nccs3)c2)C1=O (stereo not drawn) ... 396
Cc1nnc(-c2ccc(Oc3cc(O[C@H]4CCN(C)C4=O)cc(C(=O)Nc4nccs4)c3)cc2)o1 ... 255
Cc1nc(-c2ccc(Oc3cc(OC4CCN(C)C4=O)cc(C(=O)Nc4ncc(C)s4)c3)cc2)no1 (stereo not drawn) ... 287

* * *

- MEASUREMENT_TARGET: glucokinase (GK) enzyme (Homo sapiens)
- EXPERIMENT_NOTES: In-vitro glucokinase (GK) activation assay (coupled with glucose-6-phosphate dehydrogenase, absorbance at 340)
- Assay type: biochemical
- CONDITION_SET: 10 uM compound; glucose 2.5 mM; read-out: % of GK activity wrt DMSO
- Protocol: The compound of the invention was incubated with glucokinase (GK) enzyme (0.2 units) for 10 minutes in assay buffer at 26° C. After incubation, addition of glucose-6-phosphate dehydrogenase (2.5 units), ATP (1 mM) and glucose (2.5 mM). Absorbance is measured at 340 nm for 15 minutes with 10 second interval using UV transparent plate in kinetic mode on Spectramax-190 at 30° C.
READOUT: activity at 10 µM (%)

Answered cases to consult:
Cc1csc(NC(=O)c2cc(Oc3ccc(-c4noc(C)n4)cc3)cc(OC3CCN(C)C3=O)c2)n1 (stereo not shown) ... 320
Cc1nnc(-c2cccc(Oc3cc(OC4CCN(C)C4=O)cc(C(=O)Nc4nccs4)c3)c2)o1 (stereo not shown) ... 228
Cc1csc(NC(=O)c2cc(Oc3ccc(-c4nnc(C5CC5)o4)cc3)cc(OC3CCN(C)C3=O)c2)n1 (stereo not shown) ... 375
Cc1nnc(-c2ccc(Oc3cc(OC4CCN(C)C4=O)cc(C(=O)Nc4ncccc4O)c3)cc2)o1 (stereo not shown) ... 262
CCc1nnc(-c2ccc(Oc3cc(OC4CCN(C)C4=O)cc(C(=O)Nc4nc(C)cs4)c3)cc2)o1 (stereo not shown) ... 365

[A] Cc1nnc(-c2ccc(Oc3cc(OC4CCN(C)C4=O)cc(C(=O)Nc4cnccn4)c3)cc2)o1 (stereo not shown)
[B] Cc1nnc(-c2ccc(Oc3cc(OC4CCN(C5CCCCC5)C4=O)cc(C(=O)Nc4nccs4)c3)cc2)o1 (stereo not shown)
Please let me know which one, A or B , has a lower measured activity at 10 µM value. Selection: enter the item's label.
B
(B: 225%, A: 346%)
